# Tested on: Human immunodeficiency virus 1
# experiment: Antiviral activity against HIV1 harboring vesicular stomatitis virus glycoprotein infected in human 293T cells assessed as inhibition of viral replication at 10 uM after 48 hrs by luciferase activity based luminometer analysis
# Format: functional, organism-based
The source made the active and inactive calls. The rule behind the calls is not given here.
readout: Activity

Observe how each entry below is paired with its result.
CC(=O)O[C@@H]1[C@@H]2[C@H]3O[C@]3(C)CC[C@H]3[C@H](/C=C(\C)C(=O)[C@@]2(O)C[C@@H]1C)C3(C)C; inactive
C/C1=C\[C@H]2[C@@H](O)[C@@H](C)C[C@]2(OC(=O)c2ccccc2)C(=O)/C(C)=C/[C@H]2[C@H](CC1)C2(C)C; inactive
CC(=O)O[C@H]1/C(C)=C\C[C@H]2[C@H](/C=C(\C)C(=O)[C@@]3(OC(=O)c4ccccc4)C[C@H](C)[C@H](O)[C@H]13)C2(C)C; inactive
CC(=O)O[C@H]1[C@@H](C)C[C@]2(OC(C)=O)C(=O)/C(C)=C/[C@H]3[C@H](CC/C(C)=C/[C@@H]12)C3(C)C; inactive
C/C1=C/C[C@H]2[C@H](/C=C(\C)C(=O)[C@@]3(O)C[C@H](C)[C@H](O)[C@@H]3[C@H]1OC(=O)/C=C/c1ccccc1)C2(C)C; inactive

Field Activity (entry C/C1=C\[C@H]2[C@H](CC[C@@]3(C)O[C@@H]3[C@H]3[C@@H](OC(=O)c4ccccc4)[C@@H](C)C[C@]3(OC(=O)c3ccccc3)C1=O)C2(C)C ) reads inactive

Entry C/C1=C\[C@H]2[C@@H](OC(=O)/C=C/c3ccccc3)[C@@H](C)C[C@]2(O)C(=O)/C(C)=C/[C@H]2[C@H](CC1)C2(C)C ; Activity = inactive

For record C=C1CC[C@H]2[C@H](/C=C(\C)C(=O)[C@@]3(OC(=O)/C=C/c4ccccc4)C[C@H](C)[C@H](O)[C@@H]3[C@H]1O)C2(C)C the listed Activity is inactive

The recorded Activity for C/C1=C/C[C@H]2[C@@H](/C=C(\C)C(=O)[C@@]3(O)C[C@H](C)[C@H](OC(=O)/C=C/c4ccccc4)[C@H]3[C@H]1O)C2(C)C is inactive

The recorded Activity for CC(=O)O[C@@H]1[C@@H]2[C@H]3O[C@]3(C)CC[C@H]3[C@H](/C=C(\C)C(=O)[C@@]2(OC(C)=O)C[C@@H]1C)C3(C)C is inactive
